The measurements presented in this section are drawn from PubChem BioAssay (NCI).

assay: NCI Yeast Anticancer Drug Screen. Data for the rad50 strain (AID 155);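 note: 0% = growth of vehicle-only cultures of the same strain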; details: S. cerevisiae rad50 strain growth inhibition; at 33.0 µM
About 79,000 compounds went through this panel and 15% of them were active in at least one assay; those are over-represented in the sample as a whole. Calls of active or inactive are those of the source. Cut-off read from the data, not from the text of the source: active = growth inhibition above about 70%; inactive = the rest.
The reply should be one of these categories: True (active), False (inactive)

The examples below pair each entry with its known result.
{"COMPOUND": "CCOC(=O)C1C2c3ccccc3C(c3ccccc32)C1C(=O)OCC (stereo not drawn)", "CATEGORY LABEL": "False"}
{"COMPOUND": "C[C@]12CC[C@H](O)CC1=CC[C@@H]1[C@@H]2CC[C@]2(C)C(=O)CC[C@@H]12", "CATEGORY LABEL": "True"}
{"COMPOUND": "COC(COC(=O)N1CCN(C=O)CC1)C1=C(N2CC2)C(=O)C(C)=C(N2CC2)C1=O (stereo not drawn)", "CATEGORY LABEL": "False"}
{"COMPOUND": "OCC(O)C(O)CO (stereo not drawn) (tested in a mixture with another compound)", "CATEGORY LABEL": "False"}
{"COMPOUND": "O=C(O)CCCOc1cc(Cl)c(Cl)cc1Cl", "CATEGORY LABEL": "False"}
{"COMPOUND": "CCC1(O)C(=O)OCc2c1cc1n(c2=O)Cc2cc3cc(Cl)ccc3nc2-1 (stereo not drawn)", "CATEGORY LABEL": "True"}

Moving on to the next compound.
Q: Assay result, entry `CNCC(O)c1ccc(O)c(O)c1.[Pt].c1ccc([PH+](c2ccccc2)c2ccccc2)cc1.c1ccc([PH+](c2ccccc2)c2ccccc2)cc1` — outcome?
A: True

====

Can you tell me growth inhibition for the items I'm about to list?
Test: NCI Yeast Anticancer Drug Screen. Data for the mlh1 rad18 strain (AID 175)
Settings: S. cerevisiae mlh1 rad18 strain growth inhibition; at 50.0 µM (retest, dose inferred, filed as 5.0); hits give high values
Experimental: Growth inhibition of yeast strains with defined genetic alterations is measured as a screen for potential anti-cancer activity. Selected strains with alterations in DNA damage repair or cell cycle control were exposed to compounds and growth inhibition was measured relative to vehicle treated controls. The strain used in this assay is mlh1 rad18
About 79,000 compounds went through this panel and 15% of them were active in at least one assay; those are over-represented in the sample as a whole.
Numbers only, in %.

Examples from the recorded data:
{"COMPOUND": "[C-]#[O+].[C-]#[O+].[C-]#[O+].[CH3][Sn]([c]1ccccc1)[c]1ccccc1.[Co].c1ccc([PH+](c2ccccc2)c2ccccc2)cc1", "VALUE KIND": "growth inhibition", "VALUE": 99}
{"COMPOUND": "Oc1c(Cl)c(Cl)c(Cl)c(Cl)c1Cl.[Cu+2]", "VALUE KIND": "growth inhibition", "VALUE": 96}

Hi there! I need growth inhibition for each item below, if you can.
1. [Cl][Hg].c1ccc([As]c2ccc(-c3ccccc3)cc2)cc1 (configuration not stated)
2. C[C@]12CC/C(=N\OC(=O)Nc3ccccc3)C=C1CC[C@@H]1C2CC[C@@]2(C)C1CC[C@@H]2OC(=O)Nc1ccccc1 (some centres not stated)
3. C/C(=N\Nc1ccccn1)C1CC[N-]C2C(O)CCCC12.C/C(=N\Nc1ccccn1)C1CC[N-]C2C(O)CCCC12.[Cu+2] (configuration not stated)
4. O=C(CI)c1ccc[nH]1
5. COC1OC(COC(C)=O)C(OC(C)=O)C(OC(C)=O)[CH]1[Hg][I] (configuration not stated)
6. COC1=[C]([Hg][Br])C(OC)OC1OC (configuration not stated)
7. O=C(c1ccc(Br)cc1)C1C(c2ccccc2)N1C1CCCCC1 (configuration not stated)
8. c1ccc([Te][Te]c2ccccc2)cc1

A:
1. 92
2. 87
3. 98
4. 97
5. 99
6. 99
7. 86
8. 88

====

test: NCI Yeast Anticancer Drug Screen. Data for the mec2-1 strain (AID 157); details: S. cerevisiae mec2-1 strain, at 50.0 µM (retest, dose inferred, filed as 5.0)
The panel holds about 79,000 compounds, 15% with a hit somewhere; the sample as a whole holds those more often. The source made the active and inactive calls. Rule as the data show it: active = growth inhibition above about 70%; inactive = the rest.
Select the correct class. Options are yes (1) for active, no (0) for inactive and nothing else.

Use these answered entries as a reference point.
{"COMPOUND": "O=C(O)/C=C\\c1c[nH]c2ccccc12", "CATEGORY LABEL": "yes (1)"}
{"COMPOUND": "Brc1ccc(N2C[N+](c3ccc(Br)cc3)=NC(c3ccccc3)=N2)cc1", "CATEGORY LABEL": "yes (1)"}
{"COMPOUND": "CNC1=C(C)C(=O)C2=C(C1=O)C(COC(N)=O)C1(O)C3C(CN21)N3C (stereo unspecified)", "CATEGORY LABEL": "yes (1)"}
{"COMPOUND": "[Cl][Hg][Cl].c1ccc(CSc2ccccc2)cc1", "CATEGORY LABEL": "yes (1)"}
{"COMPOUND": "Nc1nc(N)c(-c2ccc(Cl)c(Cl)c2)c(CP(Cl)(Cl)(Cl)Br)n1", "CATEGORY LABEL": "yes (1)"}
{"COMPOUND": "OCC(O)C(O)CO (stereo unspecified) (tested in a mixture with another compound)", "CATEGORY LABEL": "no (0)"}

Q: Could you kindly confirm the outcome this assay logged for `CC(=O)[O-].O=C([CH-]C(=O)c1ccccc1)c1ccccc1.O=C([CH-]C(=O)c1ccccc1)c1ccccc1.[Sm+3]` ?
A: no (0)

Q: Which outcome did this test record for the compound CC(Br)CN1CCOCC1 (stereo unspecified) ?
A: yes (1)

====

assay: NCI Yeast Anticancer Drug Screen. Data for the mlh1 rad18 strain (AID 175); conditions: S. cerevisiae mlh1 rad18 strain growth inhibition; at 50.0 µM (retest, dose inferred, filed as 5.0)
Compounds without any hit were thinned out: in the full panel of roughly 79,000, 15% have a hit. Calls of active or inactive are those of the source. No stated cut-off is given here; in the data, active means growth inhibition above about 70%; inactive means the rest.
Form entry, call: pick from TRUE for active, FALSE for inactive

{"COMPOUND": "CC1(C)CC(=O)C([Se]C2=C(O)CC(C)(C)CC2=O)=C(O)C1", "CATEGORY LABEL": "TRUE"}
{"COMPOUND": "CC(=O)OC1CCC2(C)C(CCC3C4=CCC(C5=CC(=O)OC5)C4(C)CCC32)C1 (stereo unspecified)", "CATEGORY LABEL": "FALSE"}
{"COMPOUND": "O=c1oc2ccccc2c(O)c1C(c1ccc(OCc2ccccc2)cc1)c1c(O)c2ccccc2oc1=O", "CATEGORY LABEL": "FALSE"}

Q: Test call for this compound, please: `Cl[C](Cl)(Cl)[Hg][c]1ccccc1`
A: TRUE

Q: Outcome logged for `O=C1C(F)=C(N2CC2)C(=O)C(F)=C1N1CC1` in this assay:
A: TRUE

Q: Could you check what this test reported for `[Br][Hg][CH2]COC[CH2][Hg][Br]` ?
A: TRUE

Q: Name the outcome recorded for CCOC(=O)C1=C(C(=O)OCC)C2(c3ccccc3)N(O1)c1ccccc1C2(C)C (stereo unspecified) in the assay.
A: FALSE

Q: I would be grateful if you could indicate the recorded call for CCC(C)N1CN(c2ccccc2)C2(CCN(CCCC3(c4ccc(F)cc4)OCCO3)CC2)C1=O (stereo unspecified) .
A: TRUE

Q: In this assay, the call recorded for `COc1cc(C=Nc2ccc(-c3csc(COc4ccccc4)n3)cc2)ccc1N(CCCl)CCCl` was what?
A: TRUE

====

test: NCI Yeast Anticancer Drug Screen. Data for the rad50 strain (AID 155);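 note: 0% = growth of vehicle-only cultures of the same strain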; conditions: S. cerevisiae rad50 strain growth inhibition; at 5.0 µM (retest, dose inferred, filed as 0.5); hits give high values
Compounds without any hit were thinned out: in the full panel of roughly 79,000, 15% have a hit.
Assign growth inhibition to each entry below.
Answers are plain numbers, in %.

{"MOLECULE": "CCCCCCC1CC2(Cl)C(Cl)=C(Cl)C1(Cl)C2(Cl)Cl (stereo not drawn)", "UNIT SYMBOL": "%", "growth inhibition": 32}
{"MOLECULE": "CC(Br)CN(CC(C)Br)c1ccc2c(c1)Cc1ccccc1-2 (stereo not drawn)", "UNIT SYMBOL": "%", "growth inhibition": 12}
{"MOLECULE": "C[n+]1c(/C=C/c2ccc(O)c(O)c2)[se]c2ccccc21", "UNIT SYMBOL": "%", "growth inhibition": 12}
{"MOLECULE": "C1CC[N-]CC1.CC(=N\\O)/C(C)=N/O.CC(=N\\O)/C(C)=N/O.OC1[CH-]CCCC1.[Co+2]", "UNIT SYMBOL": "%", "growth inhibition": 22}
{"MOLECULE": "Cc1cccc2cc3ccccc3cc12", "UNIT SYMBOL": "%", "growth inhibition": 29}

Here are 2 molecules. What values of growth inhibition were reported for them?
1. Br[C](Br)(Br)[Hg][c]1ccccc1
2. ClCCN(CCCl)c1ccc(CN2CCCN(Cc3ccc(N(CCCl)CCCl)cc3Cl)C2c2ccncc2)c(Cl)c1

A:
1. 99
2. 2

Batch lookup, growth inhibition per entry.
1. COc1ccc2c(c1O)C13CCN(C)C(C2)C12C=CC(=O)C3c1c(O)ccc(O)c12 (stereo not drawn)
2. NC(Cc1c[nH]c2ccccc12)P(=O)(O)O (stereo not drawn)
3. FC(F)(F)c1cccc(CCl)c1

A:
1. -2
2. -1
3. -1

Dear colleague, could you send me growth inhibition for each of the items below? Thanks.
1. [CH3][Sn]([CH3])([Cl])[c]1cc[c]([Sn]([CH3])([CH3])[Cl])cc1
2. c1ccc2c(c1)[As]=c1ccccc1=[As]2 (stereo not drawn)
3. CC[CH2][Sn]([Br])([Br])[CH2]CC
4. COC(=O)CCCCCCCCC[CH2][Hg][Cl]
5. CC1(C)N=C(N)N=C(N)N1c1cccc(N)c1.[Sn]
6. CC(C)=CC1CC(C)C2(CCC3(C)CC4C(C(=O)CC4(C)O)/C(C=O)=C\CC32)O1 (stereo not drawn)
7. CC(Cc1ccccc1)N(C)Cc1nc(C2CCC([N+](=O)[O-])O2)no1 (stereo not drawn)
8. FC(F)(F)C1(C(F)(F)F)O[Te]2(OC1(C(F)(F)F)C(F)(F)F)OC(C(F)(F)F)(C(F)(F)F)C(C(F)(F)F)(C(F)(F)F)O2

A:
26
65
29
99
24
99
17
10

The following molecules each have a reported value; give each one's growth inhibition.
1. CCC[CH2][Sn]1([CH2]CCC)[O]CC(c2ccccn2)C[O]1
2. CC(=O)Oc1cccc2c1CC(C[Se]c1ccccc1)C(=O)O2 (stereo not drawn)
3. CC(C)(C)[CH2][Hg][Cl]
4. O=[N+]([O-])C(Br)CO (stereo not drawn)
5. COc1ccccc1/C=C(/C)[N+](=O)[O-]
6. CCN(CCCl)CCCCNc1c2ccccc2nc2ccc(OC)cc12

A:
1. 36
2. 11
3. 100
4. 2
5. 96
6. 46
